TARGET_OF_ASSAY: CaLsb4
PROTOCOL: SPOT peptide array binding signal intensity (averaged, normalized) (arbitrary units (background-subtracted, floor 0; scale differs between SH3 domains)); higher = stronger binding of the SH3 domain to the peptide
OBSERVED_PROPERTY: SPOT peptide array binding signal intensity
Could you respond with only the numeric value?

Incoming: Using known records, supply SPOT peptide array binding signal intensity for `QTMRQAPKRPDADVA`
Outgoing: 910
